Cited source for all entries: patent US11926628B2

Molecular target: human DGKα (Homo sapiens (Human))
Sequence (P23743 whole entry): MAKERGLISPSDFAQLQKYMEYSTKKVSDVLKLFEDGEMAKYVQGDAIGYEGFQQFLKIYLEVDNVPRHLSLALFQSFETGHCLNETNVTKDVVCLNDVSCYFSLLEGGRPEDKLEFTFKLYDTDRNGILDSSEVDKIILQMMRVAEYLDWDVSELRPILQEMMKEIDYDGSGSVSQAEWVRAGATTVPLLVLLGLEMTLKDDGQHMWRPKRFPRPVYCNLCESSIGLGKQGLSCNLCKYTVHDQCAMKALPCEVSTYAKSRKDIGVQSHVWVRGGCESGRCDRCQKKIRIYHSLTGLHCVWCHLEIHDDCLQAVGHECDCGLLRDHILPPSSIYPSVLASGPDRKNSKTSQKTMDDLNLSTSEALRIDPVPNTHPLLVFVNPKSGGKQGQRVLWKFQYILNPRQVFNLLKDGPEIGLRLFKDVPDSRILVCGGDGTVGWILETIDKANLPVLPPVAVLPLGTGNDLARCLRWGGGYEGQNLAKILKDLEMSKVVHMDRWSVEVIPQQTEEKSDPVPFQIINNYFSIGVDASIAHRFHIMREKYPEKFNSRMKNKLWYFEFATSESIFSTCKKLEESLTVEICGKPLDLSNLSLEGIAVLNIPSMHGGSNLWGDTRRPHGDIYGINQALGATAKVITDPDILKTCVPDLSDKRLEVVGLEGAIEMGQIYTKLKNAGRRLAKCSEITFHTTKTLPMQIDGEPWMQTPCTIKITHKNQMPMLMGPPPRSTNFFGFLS
Assay: DGKα Biochemical Activity Assay (ADP-Glo)
Details: recombinant DGKα 1 nM, 100 μM ATP, 18:1 DAG/POPS/octylglucoside micelles, 1 hour at 25° C.; geometric mean; read-out: HTBS DGKa 1X ATP KM IC50
pIC50: −log10 of the molar value.
ENDPOINT: pIC50

Take a look at these entries with their results.
INSERT INTO measurements (smiles_representation, system_under_test, endpoint, recorded_measurement) VALUES
  ('CN(c1cccc(-c2ccc(C3CC3)cc2)c1)c1nc2nncn2c2ncc(F)cc12', 'human DGKα (Homo sapiens (Human))', 'pIC50', 7.76),
  ('Cc1nnc2nc(N3CCCc4c(C#CC5(C(F)(F)F)CC5)cccc43)c3cc(F)cnc3n12', 'human DGKα (Homo sapiens (Human))', 'pIC50', 8.21),
  ('CN(c1cc(F)cc(C#CC2(C(F)(F)F)CC2)c1)c1nc2nnnn2c2ccc(F)cc12', 'human DGKα (Homo sapiens (Human))', 'pIC50', 7.65),
  ('Fc1cc(C#CC2(C(F)F)CC2)cc(N(CC(F)F)c2nc3nncn3c3cncc(F)c23)c1', 'human DGKα (Homo sapiens (Human))', 'pIC50', 7.48);

P. CC1(C#Cc2cccc3c2CCCN3c2nc3nncn3c3ncc(F)cc23)CC1
Q. CNc1ccc2c(N(C)c3cccc(-c4ccc(C5CC5)cc4)c3)nc3nncn3c2n1
R. Cc1nnc2nc(N(CC(F)F)c3cc(F)cc(C#CC4(C(F)(F)F)CC4)c3)c3c(F)cncc3n12
S. Cc1nnc2nc(N(C)c3cccc(-c4ccc(C(F)F)cc4)c3)c3ccc(N)nc3n12
Prompt line: Hey, can you sort those compounds up there by pIC50, smallest first? Field: ranking. Enter the labels in the order requested.
Response line: R, Q, S, P
(R: 7.44, Q: 7.71, S: 7.91, P: 8.25)

P. CCC1(C#Cc2cccc(N(C)c3nc4nncn4c4ncc(F)cc34)c2)CC1
Q. CN(c1cc(F)cc(C#CC2(C(F)(F)F)CC2)c1)c1nc2nncn2c2cncc(F)c12
Prompt line: Which has the higher pIC50, P or Q ? Respond with the label that goes with your answer.
Response line: Q

1. Cc1nnc2nc(N3CCCc4c(C#CC5(C(C)(F)F)CC5)cncc43)c3c(F)cncc3n12
2. CNc1ccc2c(N(C)c3cccc(-c4ccc(S(F)(F)(F)(F)F)cc4)c3)nc3nncn3c2n1
3. Cc1nnc2nc(N3CCCc4c3ccnc4C#CC3(C(F)(F)F)CC3)c3c(F)cncc3n12
Prompt line: Provide the items ranked by increasing pIC50. Reply: labels, ordered per the request.
Response line: 2, 1, 3

I. CN(c1cccc(C#CC2(C(F)(F)F)CC2)c1)c1nc2nncn2c2nc(N)ccc12
II. Cc1nnc2nc(N3CCOCc4c(C#CC(C)(C)O)cccc43)c3ccc(C(F)(F)F)nc3n12
Prompt line: Pick the one with the larger pIC50: I vs II Refer to your chosen item by its label in the answer.
Response line: II
